Parameter: TGI. Scope: all listed entries.
- Tested on: CCRF-CEM leukemia
- assay-comment: NCI tumour cell line growth inhibition, 48 h
Where a SMILES comes first, the peptide text is derived from it. [ ]: non-standard residue; d: D form. The star is where a group is joined. ξ: configuration not given here. ξF = NC(Cc1ccccc1)C(=O)O; Cbz = O=C(OCc1ccccc1)*
value-type: TGI

# compound, test-system, measurement
measured = [
    ("N#Cc1sc2nc3ccccc3n2c1N", "CCRF-CEM leukemia", "> 100 µM"),
    ("COC(=O)[C@H](Cc1ccccc1)NC(=O)c1ccc(CNC(=O)/C=C/c2csc(-c3ccccc3)n2)cc1", "CCRF-CEM leukemia", "> 100 µM"),
    ("COc1ccc(C(O)c2cc3c(N)c(C(=O)Nc4cccc5ccccc45)sc3nc2C)cc1 (configuration not stated)", "CCRF-CEM leukemia", "> 100 µM"),
    ("CCCCCCCCOCC(COC(=O)CCCCCCC)OC(=O)CCCCCCC (configuration not stated)", "CCRF-CEM leukemia", "> 100 µM"),
    ("NCCOc1cccc(C2(N3CCCCC3)CCCCC2)c1", "CCRF-CEM leukemia", "35.8 µM"),
    ("CC(C)Cc1ccc(C(C)/C=C2\\CCC(CN(C)C)C2=O)cc1 (configuration not stated)", "CCRF-CEM leukemia", "23.4 µM"),
    ("CCOC(=O)c1cn(CC)c(=O)n2c1nc1ccccc12", "CCRF-CEM leukemia", "> 100 µM"),
    ("Cc1nc2ccccc2c(=O)n1/N=C(\\N=Nc1ccccc1Cl)c1ccccc1Cl", "CCRF-CEM leukemia", "> 100 µM"),
    ("Cn1c(=O)c2nc3sc4c(n3c2n(C)c1=O)C(=O)c1ccccc1C4=O", "CCRF-CEM leukemia", "> 50.3 µM"),
    ("CC[C@H](C)[C@H](NC(=O)[C@H]1CCCCN1C)C(=O)N(C)[C@H](C[C@@H](OC(C)=O)c1nc(C(=O)NC23CC(C(=O)OC)(C2)C3)cs1)C(C)C", "CCRF-CEM leukemia", "1.47 µM"),
    ("c1ccc(COC[C@H]2O[C@@H](c3ccccc3)C[C@@H](OCc3ccccc3)C2OCc2ccccc2)cc1 (some centres not stated)", "CCRF-CEM leukemia", "> 10 µM"),
    ("Cc1cc(O)c(/C=N/C(N)=S)c(=O)o1", "CCRF-CEM leukemia", "84.4 µM"),
    ("CCOC(=O)CNC(=O)C(Cc1ccccc1)NC(=O)OCc1ccccc1 (configuration not stated) (Cbz-[ξF]-Gly-OEt)", "CCRF-CEM leukemia", "> 100 µM"),
    ("COc1ccc2c(C(=O)O)cc3ccccc3c2c1OC", "CCRF-CEM leukemia", "88.4 µM"),
    ("COc1ccc2nc(NC(=O)C(=O)CC(=O)c3ccc([N+](=O)[O-])cc3)sc2c1", "CCRF-CEM leukemia", "> 100 µM"),
    ("COc1ccc2ccccc2c1C1=NC(C)(C)CO1", "CCRF-CEM leukemia", "> 100 µM"),
    ("O=C1CC(O)c2cscc21 (configuration not stated)", "CCRF-CEM leukemia", "45.8 µM"),
]
